target: Peptide 1: Biotin-…-[Tyr(PC)]-acid
Sequence (peptide, as listed by the source): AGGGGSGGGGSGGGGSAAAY
assay.name: scFv ELISA
measure.name: OD450 (OD450)
Give the number; OD450 is assumed, so skip it.

// sample PcOxP_DB01_H06 (scFv, V domains shown, scFv in periplasmic extract) VH: EVQLLESGGGLVQPGGSLRLSCAASGFTFSDFYMEWVRQAPGKGLEWVAASRNKGNSYTTAYADSVKGRFTISRDNSKNTLYLQMNSLRAEDTAVYYCARDYYGSSYWYFDVWGQGTLVTVSS VL: DIVMTQSPDSLAVSLGERATINCTASESLYSSKHKVHYLAWYQQKPGQPPKLLIYGASNRYDGVPDRFSGSGSGTDFTLTISSLQAEDVAVYYCANFYSYPLTFGGGTKVEIK , its OD450 was 0.96

// sample PcOxP_DB03_C08 (scFv, V domains shown, scFv in periplasmic extract) VH: EVQLLESGGGLVQPGGSLRLSCAASGSTFSDFYMEWVRQAPGKGLEWVAASRNKANDFTTEYADSVKGRFTISRDNSKNTLYLQMNSLRAEDTAVYYCARDYYGSSYWYFDVWGQGTLVTVSS VL: DIVMTQSPDSLAVSLGERATINCTASESLYSSKHKVHYLAWYQQKPGQPPKLLIYGASNRYSGVPDRFSGSGSGTDFTLTISSLQAEDVAVYYCAQFYHYPLTFGGGTKVEIK , its OD450 was 0.98
